# assay_target: T1, Soluble CD28-Ig (human, UniProt P10747 19-152, biotin-conjugated (NHS-biotin) in the labelled-ligand FACS assays)
# T1 construct: extracellular domain; Bought from R&D Systems; also called sCD28-Ig; CD28-Ig Fc; not shown: Fc portion of human IgG1
# assay_protocol: two-colour FACS profile on transfected cells; score of preference for CD28-Ig over CTLA-4-Ig vs WT hB7-1
parameter: Binding Score
Output spec: single numeric token, no unit.

Request the reported Binding Score associated with Round 2 CD28BP-16 (ligand) ITPKSVTKRVKETVMLSCDYNTSTEELTSLRIYWQKDSKMVLAILPGKVQVWPEYKNRTITDMNDNPRIVILALRLSDSGTYTCVIQKPVLKGAYKLEHLTSVRLMIRADFPVPTINDLGNPSPNIRRLICSTSGGFPRPHLYWLENGEELNATNTTVSQDPGTELYMISSELDFNVTNNHSIVCLIKYGELSVSQIFPWSKPKQEPPIDQLPFWVIIPVSGALVLAAVVLYCLACRHVARWKRTRRNEETVGTERLSPIYLGSAQSSG
2
